Reference source: ChEMBL document CHEMBL1140539

test system: HCT-15; test: Growth inhibition of human HCT15 cells by SRB assay; type: functional
Observation type: GI50

[[record]]
structure_smiles = "Cc1ccccc1CN1CCC=C(CCC(=O)NO)C1=O"
assayed_system = "HCT-15"
endpoint_result = "> 10 µM"

[[record]]
structure_smiles = "O=C(CCC1=CCCN(Cc2ccc(NC(=O)c3ccccc3)cc2)C1=O)NO"
assayed_system = "HCT-15"
endpoint_result = "> 10 µM"

[[record]]
structure_smiles = "Cc1cccc(CN2CCC=C(CCC(=O)NO)C2=O)c1"
assayed_system = "HCT-15"
endpoint_result = "> 10 µM"

[[record]]
structure_smiles = "O=C(CCC1=CCCN(Cc2ccc([N+](=O)[O-])cc2)C1=O)NO"
assayed_system = "HCT-15"
endpoint_result = "> 10 µM"

[[record]]
structure_smiles = "Cc1ccc(S(=O)(=O)Nc2ccc(CN3CCC=C(CCC(=O)NO)C3=O)cc2)cc1"
assayed_system = "HCT-15"
endpoint_result = "> 10 µM"


We next turn to a different molecule, shown below.
GI50 measured on COc1ccccc1CN1CCC=C(CCC(=O)NO)C1=O = > 10 µM
